- system-under-test: T1, alcalase (trade name "Alcalase 2.5L", Novozymes) (UniProt P00780)
- T1 sequence (looked up): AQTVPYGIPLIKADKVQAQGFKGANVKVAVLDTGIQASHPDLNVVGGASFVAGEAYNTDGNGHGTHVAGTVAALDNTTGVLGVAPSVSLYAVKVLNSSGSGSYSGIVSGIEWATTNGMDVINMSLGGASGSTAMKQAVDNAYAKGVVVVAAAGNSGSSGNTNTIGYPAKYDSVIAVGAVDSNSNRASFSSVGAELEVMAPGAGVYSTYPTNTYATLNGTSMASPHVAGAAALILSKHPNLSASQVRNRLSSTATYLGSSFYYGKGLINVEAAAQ
- experimental-details: cell-based or functional assay
Hi there, I'd appreciate the recorded Remaining activity (%) immediately after preparation for every entry that follows.
Expressed in %, but write only the number.

## Task Hello, please tell me recorded Remaining activity (%) immediately after preparation for this one: proteinaceous protease inhibitor of SEQ ID NO:41 (protein) MSSVEKKPEGVNTGAGDRHNLKTEWPELVGKSVEEAKKVILQDKSEAQIIVLPVGTIVTMEYRIDRVRLFVDKLDNIAQVPRVG
## Result 0

## Task Hello, please tell me recorded Remaining activity (%) immediately after preparation for this one: proteinaceous protease inhibitor of SEQ ID NO:19 (protein) TDTGDHHNQKTEWPELVGKSVEEAKKVILQDKSEAQIVVLPVGTIVTMEYRIDRVRLFVDSLDKIAQVPAVG
## Result 2

## Task Hello, please tell me recorded Remaining activity (%) immediately after preparation for this one: proteinaceous protease inhibitor of SEQ ID NO:14 (protein) TDTGDHHNQKTEWPELVGKSVEEAKKVILQDKSEAQIVVLPVGTIVTMEYHIDRVRLFVDSLDKIAQVPRVG
## Result 5

meta.source: patent US20140357543A1
